Tested on: Mycobacterium tuberculosis Erdman (autoluminescent)
TEST_DETAILS: GRinf, maximum normalised growth rate inhibition (three-drug combination) (unitless (-1 to 1)); higher = less effect (negative = killing)
EXPERIMENTAL_PARAMETERS: in vitro model: intracellular J774; time point: constant = terminal
Quick list: GRinf per entry.

compound="CC[C@@H](CO)NCCN[C@@H](CC)CO [ethambutol] + NNC(=O)c1ccncc1 [isoniazid] + CC(=O)NC[C@H]1CN(c2ccc(N3CCOCC3)c(F)c2)C(=O)O1 [linezolid]" measured_parameter=GRinf result=-0.189
compound="CC[C@@H](CO)NCCN[C@@H](CC)CO [ethambutol] + NNC(=O)c1ccncc1 [isoniazid] + CO[C@H]1/C=C/O[C@@]2(C)Oc3c(C)c(O)c4c(O)c(c(/C=N/N5CCN(C6CCCC6)CC5)c(O)c4c3C2=O)NC(=O)/C(C)=C\\C=C\\[C@H](C)[C@H](O)[C@@H](C)[C@@H](O)[C@@H](C)[C@H](OC(C)=O)[C@@H]1C [rifapentine]" measured_parameter=GRinf result=-0.299
compound="COc1nc2ccc(Br)cc2cc1[C@@H](c1ccccc1)[C@@](O)(CCN(C)C)c1cccc2ccccc12 [bedaquiline] + CC(C)/N=c1\\cc2n(-c3ccc(Cl)cc3)c3ccccc3nc-2cc1Nc1ccc(Cl)cc1 [clofazimine] + O=[N+]([O-])c1cn2c(n1)OC[C@@H](OCc1ccc(OC(F)(F)F)cc1)C2 [pretomanid]" measured_parameter=GRinf result=-0.307
compound="CC(C)/N=c1\\cc2n(-c3ccc(Cl)cc3)c3ccccc3nc-2cc1Nc1ccc(Cl)cc1 [clofazimine] + CC[C@@H](CO)NCCN[C@@H](CC)CO [ethambutol] + CC(=O)NC[C@H]1CN(c2ccc(N3CCOCC3)c(F)c2)C(=O)O1 [linezolid]" measured_parameter=GRinf result=-0.815
compound="COc1nc2ccc(Br)cc2cc1[C@@H](c1ccccc1)[C@@](O)(CCN(C)C)c1cccc2ccccc12 [bedaquiline] + O=[N+]([O-])c1cn2c(n1)OC[C@@H](OCc1ccc(OC(F)(F)F)cc1)C2 [pretomanid] + CO[C@H]1/C=C/O[C@@]2(C)Oc3c(C)c(O)c4c(O)c(c(/C=N/N5CCN(C)CC5)c(O)c4c3C2=O)NC(=O)/C(C)=C\\C=C\\[C@H](C)[C@H](O)[C@@H](C)[C@@H](O)[C@@H](C)[C@H](OC(C)=O)[C@@H]1C [rifampicin]" measured_parameter=GRinf result=-0.416

In the following, a different compound is considered.
Using Mycobacterium tuberculosis Erdman (autoluminescent) as the test system, report measured GRinf of COc1c(N2C[C@@H]3CCCN[C@@H]3C2)c(F)cc2c(=O)c(C(=O)O)cn(C3CC3)c12 [moxifloxacin] + NC(=O)c1cnccn1 [pyrazinamide] + CO[C@H]1/C=C/O[C@@]2(C)Oc3c(C)c(O)c4c(O)c(c(/C=N/N5CCN(C6CCCC6)CC5)c(O)c4c3C2=O)NC(=O)/C(C)=C\C=C\[C@H](C)[C@H](O)[C@@H](C)[C@@H](O)[C@@H](C)[C@H](OC(C)=O)[C@@H]1C [rifapentine] .
-0.65
